Value source: patent US20240272170A1

# Octet response per record follows
- Measured On: T1, RS peptide (Octet assay of PS621 variants)
- T1 construct: RXKLDEESILKQK with X = S
- T1 peptide: RSKLDEESILKQK
- Experimental Protocol: Octet (BLI), 30 C
Form field (numeric): enter value without unit.

* PS1101 (designed binder, Variant of PS621) MHSKFSHAGRICGAKFKVREPIYRCKECSFDDTCVLCVNCFNPKDHTGHHVYTTICTEFNNGICDCGDKEAWNHTLFCKAEEG | 4.3
* PS1104 (designed binder, Variant of PS621) MHSKFSHAGRICGAKFKVGEPIYRCKECSFDDTCVLCVNCFNPKDHRGHHVYTTICTEFNNGICDCGDKEAWNHTLFCKAEEG | 8.9
* PS1105 (designed binder, Variant of PS621) MHSKFSHAGRICGAKFKVGEPIYRCKECSFDDTCVLCVNCFNPKDHTRHHVYTTICTEFNNGICDCGDKEAWNHTLFCKAEEG | 5.5
* PS1102 (designed binder, Variant of PS621) MHSKFSHAGRICGAKFKVGEPIYRCKECQFDDTCVLCVNCFNPKDHTGHHVYTTICTEFNNGICDCGDKEAWNHTLFCKAEEG | 8.5
* PS621 (other, UBR protein (UBR-box) parent of PS1101-PS1122) MHSKFSHAGRICGAKFKVGEPIYRCKECSFDDTCVLCVNCFNPKDHTGHHVYTTICTEFNNGICDCGDKEAWNHTLFCKAEEG | 7.1

stdin: Recorded Octet response of PS1120 (designed binder, Variant of PS621) MHSKFSHAGRICGAKFKVGEPIYRCKECSFDDTCVLCVNCFNPKDHTGHHVYTKICTEFNNGICDCGDKEAWNHTLFCKAEEG , please.
stdout: 8.3

stdin: Recorded Octet response of PS1115 (designed binder, Variant of PS621) MHSKFSHAGRICGAKFKVGEPIYRCKECSFDDTCVLCVNCFNPKDHRGHHVYTTICTERNNGICDCGDKEAWNHELFCKAEEG , please.
stdout: 8.5
